All figures here come from patent US10464925B2.

- systemName: CRBN (Homo sapiens, UniProt Q96SW2)
- Construct: endogenous in cells
- assayName: Intracellular CRBN Engagement Assay (dFKBP7 rescue)
- recordedConditions: competition with 80 nM dFKBP7, 3 hours; read-out: FKBP7 rescue (EC50)
recordedMetric: EC50 (µM)
Numeric only. Scale: µM

Worked cases, EC50 given:
CC[C@@H]1C(=O)N(C)c2cnc(Nc3ccc(C(=O)NCCCOCCOCCOCCCNC(=O)COc4cccc5c4C(=O)N(C4CCC(=O)NC4=O)C5=O)cc3OC)nc2N1C1CCCC1 (stereo partly drawn) :: 8.12
Cc1sc2c(c1C)C(c1ccc(Cl)cc1)=N[C@@H](CC(=O)NCCCCOc1cccc3c1C(=O)N(C1CCC(=O)NC1=O)C3=O)c1nnc(C)n1-2 (stereo partly drawn) :: 7.73
COc1cc(C(=O)NCCCCNC(=O)COc2cccc3c2C(=O)N(C2CCC(=O)NC2=O)C3=O)ccc1Nc1ncc2c(n1)N(C)c1ccccc1C(=O)N2C (stereo not drawn) :: 2430
Cc1noc(C)c1-c1ccc(-c2nc3cnccn3c2NCC(=O)NCCCCNC(=O)COc2cccc3c2C(=O)N(C2CCC(=O)NC2=O)C3=O)cc1 (stereo not drawn) :: 220
Cc1noc(C)c1-c1ccc(-c2nc3cnccn3c2NCC(=O)NCCCOCCOCCOCCCNC(=O)COc2cccc3c2C(=O)N(C2CCC(=O)NC2=O)C3=O)cc1 (stereo not drawn) :: 227
Cc1c(CC#N)sc2c1C(c1ccc(Cl)cc1)=N[C@@H](CC(=O)NCCCCNC(=O)COc1cccc3c1C(=O)N(C1CCC(=O)NC1=O)C3=O)c1nnc(C)n1-2 (stereo partly drawn) :: 4330
COc1cc(C(=O)NCCCOCCOCCOCCCNC(=O)COc2cccc3c2C(=O)N(C2CCC(=O)NC2=O)C3=O)ccc1Nc1ncc2c(n1)N(C)c1ccccc1C(=O)N2C (stereo not drawn) :: 34.4
Cc1sc2c(c1C)C(c1ccc(Cl)cc1)=N[C@@H](CC(=O)NCCCN1CCN(C(=O)CCCCCNC(=O)COc3cccc4c3C(=O)N(C3CCC(=O)NC3=O)C4=O)CC1)c1nnc(C)n1-2 (stereo partly drawn) :: 749

--- query ---
Please supply the value of reported EC50 for the item Cc1c(C(=O)NCCCCNC(=O)COc2cccc3c2C(=O)N(C2CCC(=O)NC2=O)C3=O)sc2c1C(c1ccc(Cl)cc1)=N[C@@H](CC(=O)NCCCN1CCN(C)CC1)c1nnc(C)n1-2 (stereo partly drawn)
3140
